# SYSTEM UNDER TEST: PU.1 (IVT) (UniProt P17947 1-270)
# ASSAY COMMENT: protein-binding microarray (PBM); 20 mM HEPES pH 7.9, 100 mM NaCl, 1 mM DTT, 0.2 mg/mL BSA, 0.02% Triton X-100, 2% milk, 0.4 mg/mL salmon testes DNA; 1 h; temperature not stated; high values mean tight binding
# CONDITION LABEL: dsDNA, one strand shown
Whole data set: some 3,700 sequences, median “z-score” near 4, cut for the highest 2% near 8.4. The sample holds the highest values, similar sequences and a random draw of the others, so the mix is not that of the screen.
Recorded binding signal for the following sequences
OUTCOME MEASURE: binding signal (z-score)

GCCTAGCACGAAAAAGGGAACTGGTTGGGGTGCTAGGTCTTGATTCGCTTGACGCTGCTG | 5.22
GCCTAGCACAAAAAGAGGAAGTACATTAAGTGCTAGGTCTTGATTCGCTTGACGCTGCTG | 8.68
GCCTAGCACGCAAAGAGGAAGTGACTCAAGTGCTAGGTCTTGATTCGCTTGACGCTGCTG | 6.81
GCCTAGCACAGAAAGAGGAAGTGTTTATAGTGCTAGGTCTTGATTCGCTTGACGCTGCTG | 8.43
GCCTAGCACAAAAAGAGGAAGTGACTCACGTGCTAGGTCTTGATTCGCTTGACGCTGCTG | 8.49
GCCTAGCACAGAAAGAGGAAGTGACTCAGGTGCTAGGTCTTGATTCGCTTGACGCTGCTG | 8.06
GCCTAGCACGAAAAGAGGAAGTCAAACTGGTGCTAGGTCTTGATTCGCTTGACGCTGCTG | 7.89
GCCTAGCACTCCAGGAGGAACTGAAAGCTGTGCTAGGTCTTGATTCGCTTGACGCTGCTG | 1.74
GCCTAGCACCAGAAAAGGAAGTAAGCCACGTGCTAGGTCTTGATTCGCTTGACGCTGCTG | 3.98

* * *

# SYSTEM UNDER TEST: PU.1 (IVT) (UniProt P17947 1-270)
# ASSAY COMMENT: protein-binding microarray (PBM); 20 mM HEPES pH 7.9, 100 mM NaCl, 1 mM DTT, 0.2 mg/mL BSA, 0.02% Triton X-100, 2% milk, 0.4 mg/mL salmon testes DNA; 1 h; temperature not stated; high values mean tight binding
# CONDITION LABEL: dsDNA, one strand shown
The full ranking holds about 3,700 sequences; the median of “z-score” is about 4, and the highest 2% start at about 8.4. This excerpt belongs to a sample that is enriched for the highest values.
# note: exactly 8 z-score is not below, so it is no (0); use yes (1) for binding signal strictly under it

GCCTAGCACAGAAAGAGGAAGTTCCCGTCGTGCTAGGTCTTGATTCGCTTGACGCTGCTG | no (0)
GCCTAGCACAGAAAGAGGAAGTGACACTTGTGCTAGGTCTTGATTCGCTTGACGCTGCTG | no (0)
GCCTAGCACAGAAAGAGGAAGTCGAGGTGGTGCTAGGTCTTGATTCGCTTGACGCTGCTG | yes (1)
GCCTAGCACAGAAAGAGGAAGTCTCTGCCGTGCTAGGTCTTGATTCGCTTGACGCTGCTG | yes (1)
GCCTAGCACGAAAAGAGGAAGTGTAACCAGTGCTAGGTCTTGATTCGCTTGACGCTGCTG | no (0)
GCCTAGCACAAGCAGAGGAAGTGAGATTTGTGCTAGGTCTTGATTCGCTTGACGCTGCTG | yes (1)
GCCTAGCACAGAAAGAGGAAGTTATGTGCGTGCTAGGTCTTGATTCGCTTGACGCTGCTG | no (0)
GCCTAGCACGAAAAGAGGAACCGTATGGTGTGCTAGGTCTTGATTCGCTTGACGCTGCTG | yes (1)
